All values here come from paper PMC10420662.

tested on: MCF-7; test: In vitro cytotoxicity MTT assay; type: cell-based; details: Homo sapiens, MCF7, 24 h treatment, mean ± SD of three experiments
QUANTITY: IC50 (µM)
Reply with just the number (in µM).

Solved entries (count: 5):
> print(dat)
                                   molecule  tested.on  experimental.value
1  COc1ccc2c(c1)C(=NNC(=O)c1ccc(Nc3ncnc4[nH]ccc34)cc1)C(=O)N2      MCF-7                5.93
2  O=C1Nc2ccc(F)cc2C1=NNC(=O)c1ccc(Nc2ncnc3[nH]ccc23)cc1      MCF-7                63.7
3  O=C1Nc2ccccc2C1=NNC(=O)c1ccc(Nc2ncnc3[nH]ccc23)cc1      MCF-7                18.5
4  O=C1Nc2ccc(Cl)cc2C1=NNC(=O)c1ccc(Nc2ncnc3[nH]ccc23)cc1      MCF-7                72.5
5  Cc1ccc2c(c1)C(=NNC(=O)c1ccc(Nc3ncnc4[nH]ccc34)cc1)C(=O)N2      MCF-7                80.2

We next turn to a different molecule, shown below.
Data request: Give recorded IC50. CCN(CC)CCNC(=O)c1c(C)[nH]c(/C=C2\C(=O)Nc3ccc(F)cc32)c1C [Sunitinib, reference compound]
Data returned: 5.19
